Tested on: murine mesodermal stem cells (C3H10T1/2)
ASSAY EXPLANATION: Osteogenesis inhibition assay (OIA), purmorphamine-induced alkaline phosphatase expression
Assay type: cell-based
CONDITIONS: Mus musculus, C3H 10T1/2, 96 h, read-out: Osteogenesis inhibition assay IC50
MEASURED ENDPOINT: pIC50
Here pIC50 is given on a logarithmic scale as minus log10 of the concentration in mol/L.

Consider CCCCCCCCCc1ccc(O)cc1 [4-n-Nonylphenol] . Its measured pIC50 is 5.42

---

Tested on: CHO DG44 cells
ASSAY EXPLANATION: Cytotoxicity testing with CHO cells, cell growth spiking experiments (ASTM E3231-19)
Assay type: cell-based, Chinese hamster
CONDITIONS: Cricetulus griseus, CHO-DG44, 72 h, read-out: EC50 with CHO cells
MEASURED ENDPOINT: EC50

Consider CCCCCCCCCc1ccc(O)cc1 [4-n-Nonylphenol] . Its measured EC50 is > 4.5 µM
